Where do these numbers come from? They come from ChEMBL document CHEMBL1144685.

reported.metric: IC50 (nM)
Number in nM, nothing else.

Given the entry `COc1cc2nccc(Oc3ccc4c(C(=O)Nc5ccc(Cl)cc5)cccc4c3)c2cc1OC` , what IC50 was observed with Vascular endothelial growth factor receptor 3 (Homo sapiens, UniProt P35916)?
2

---

- assay.explanation: Oral bioavailability in Sprague-Dawley rat at 10 mg/kg
- Type: ADME, organism-based
- assay.conditions: in vivo
reported.metric: bioavailability
Field note: include the unit after the figure.

// returns reported bioavailability for input `COc1cc2nccc(Oc3ccc4c(C(=O)Nc5cccnc5)cccc4c3)c2cc1OC`
100%

Record request: bioavailability value, item `COc1cc2nccc(Oc3ccc4c(C(=O)Nc5ccncc5)cccc4c3)c2cc1OC`
62%
